System: human red blood cells (RBCs)
Assay: Hemolysis assay
Format: cell-based
Settings: red cells of human, 1 h, 128
Where a SMILES comes first, the peptide text is derived from it.
PROPERTY MEASURED: Percentage of hemolysis at 128 μg/mL (%)

| COMPOUND | PROPERTY MEASURED | MEASURED NUMBER |
| --- | --- | --- |
| CC[C@H](C)[C@H](NC(=O)[C@H](CCCCN)NC(=O)[C@H](CCCCN)NC(=O)[C@@H](NC(=O)[C@@H](NC(=O)[C@H](CC(=O)O)NC(=O)[C@H](Cc1ccccc1)NC(=O)[C@H](CC(C)C)NC(=O)[C@H](C)N)[C@@H](C)CC)[C@@H](C)CC)C(=O)N[C@@H](C)C(=O)N[C@@H](CCC(=O)O)C(=O)N[C@@H](CO)C(=O)N[C@@H](Cc1ccccc1)C(N)=O [Peptide G1A] (H-ALFDIIKKIAESF-NH2) | Percentage of hemolysis at 128 μg/mL | 0.3 |
| CC[C@H](C)[C@H](NC(=O)[C@H](CCCCN)NC(=O)[C@H](CCCCN)NC(=O)[C@@H](NC(=O)[C@@H](NC(=O)[C@H](CC(=O)O)NC(=O)[C@H](Cc1ccccc1)NC(=O)[C@H](CC(C)C)NC(=O)CN)[C@@H](C)CC)[C@@H](C)CC)C(=O)N[C@@H](C)C(=O)N[C@@H](C)C(=O)N[C@@H](CO)C(=O)N[C@@H](Cc1ccccc1)C(N)=O [Peptide E11A] (H-GLFDIIKKIAASF-NH2) | Percentage of hemolysis at 128 μg/mL | 11.9 |
| CC[C@H](C)[C@H](NC(=O)[C@H](C)NC(=O)[C@H](CC(=O)O)NC(=O)[C@H](Cc1ccccc1)NC(=O)[C@H](CC(C)C)NC(=O)CN)C(=O)N[C@@H](CCCCN)C(=O)N[C@@H](CCCCN)C(=O)N[C@H](C(=O)N[C@@H](C)C(=O)N[C@@H](CCC(=O)O)C(=O)N[C@@H](CO)C(=O)N[C@@H](Cc1ccccc1)C(N)=O)[C@@H](C)CC [Peptide I5A] (H-GLFDAIKKIAESF-NH2) | Percentage of hemolysis at 128 μg/mL | 0.0 |
| CC[C@H](C)[C@H](NC(=O)[C@H](CCCCN)NC(=O)[C@H](CCCCN)NC(=O)[C@@H](NC(=O)[C@@H](NC(=O)[C@H](CC(=O)O)NC(=O)[C@H](Cc1ccccc1)NC(=O)[C@H](C)NC(=O)CN)[C@@H](C)CC)[C@@H](C)CC)C(=O)N[C@@H](C)C(=O)N[C@@H](CCC(=O)O)C(=O)N[C@@H](CO)C(=O)N[C@@H](Cc1ccccc1)C(N)=O [Peptide L2A] (H-GAFDIIKKIAESF-NH2) | Percentage of hemolysis at 128 μg/mL | 0.0 |
| CC[C@H](C)[C@H](NC(=O)[C@H](C)NC(=O)[C@H](Cc1ccccc1)NC(=O)[C@H](CC(C)C)NC(=O)CN)C(=O)N[C@H](C(=O)N[C@@H](CCCCN)C(=O)N[C@@H](CCCCN)C(=O)N[C@H](C(=O)N[C@@H](C)C(=O)N[C@@H](CCC(=O)O)C(=O)N[C@@H](CO)C(=O)N[C@@H](Cc1ccccc1)C(N)=O)[C@@H](C)CC)[C@@H](C)CC [Peptide D4A] (H-GLFAIIKKIAESF-NH2) | Percentage of hemolysis at 128 μg/mL | 23.2 |
| CC[C@H](C)[C@H](NC(=O)[C@H](CCCCN)NC(=O)[C@H](CCCCN)NC(=O)[C@@H](NC(=O)[C@@H](NC(=O)[C@H](CC(=O)O)NC(=O)[C@H](Cc1ccccc1)NC(=O)[C@H](CC(C)C)NC(=O)CN)[C@@H](C)CC)[C@@H](C)CC)C(=O)N[C@@H](C)C(=O)N[C@@H](CCC(=O)O)C(=O)N[C@@H](CO)C(=O)N[C@@H](C)C(N)=O [Peptide F13A] (H-GLFDIIKKIAESA-NH2) | Percentage of hemolysis at 128 μg/mL | 0.0 |
| CC[C@H](C)[C@H](NC(=O)[C@H](C)NC(=O)[C@H](CCCCN)NC(=O)[C@@H](NC(=O)[C@@H](NC(=O)[C@H](CC(=O)O)NC(=O)[C@H](Cc1ccccc1)NC(=O)[C@H](CC(C)C)NC(=O)CN)[C@@H](C)CC)[C@@H](C)CC)C(=O)N[C@@H](C)C(=O)N[C@@H](CCC(=O)O)C(=O)N[C@@H](CO)C(=O)N[C@@H](Cc1ccccc1)C(N)=O [Peptide K8A] (H-GLFDIIKAIAESF-NH2) | Percentage of hemolysis at 128 μg/mL | 49.3 |
| CC[C@H](C)[C@H](NC(=O)[C@H](CCCCN)NC(=O)[C@H](C)NC(=O)[C@@H](NC(=O)[C@@H](NC(=O)[C@H](CC(=O)O)NC(=O)[C@H](Cc1ccccc1)NC(=O)[C@H](CC(C)C)NC(=O)CN)[C@@H](C)CC)[C@@H](C)CC)C(=O)N[C@@H](C)C(=O)N[C@@H](CCC(=O)O)C(=O)N[C@@H](CO)C(=O)N[C@@H](Cc1ccccc1)C(N)=O [Peptide K7A] (H-GLFDIIAKIAESF-NH2) | Percentage of hemolysis at 128 μg/mL | 3.0 |

###

Test system: human red blood cells (RBCs)
Assay: Hemolysis assay
Assay type: cell-based
Details: red cells of human, 1 h, 2
Where a SMILES comes first, the peptide text is derived from it.

| COMPOUND | Percentage of hemolysis at 2 μg/mL [%] |
| --- | --- |
| CC[C@H](C)[C@H](NC(=O)[C@H](CCCCN)NC(=O)[C@H](CCCCN)NC(=O)[C@@H](NC(=O)[C@@H](NC(=O)[C@H](CC(=O)O)NC(=O)[C@H](Cc1ccccc1)NC(=O)[C@H](CC(C)C)NC(=O)CN)[C@@H](C)CC)[C@@H](C)CC)C(=O)N[C@@H](C)C(=O)N[C@@H](CCC(=O)O)C(=O)N[C@@H](C)C(=O)N[C@@H](Cc1ccccc1)C(N)=O [Peptide S12A] (H-GLFDIIKKIAEAF-NH2) | 0.0 |
| CC[C@H](C)[C@H](NC(=O)[C@H](CCCCN)NC(=O)[C@H](CCCCN)NC(=O)[C@@H](NC(=O)[C@@H](NC(=O)[C@H](CC(=O)O)NC(=O)[C@H](Cc1ccccc1)NC(=O)[C@H](CC(C)C)NC(=O)CN)[C@@H](C)CC)[C@@H](C)CC)C(=O)N[C@@H](C)C(=O)N[C@@H](CCC(=O)O)C(=O)N[C@@H](CO)C(=O)N[C@@H](C)C(N)=O [Peptide F13A] (H-GLFDIIKKIAESA-NH2) | 0.6 |
| CC[C@H](C)[C@H](NC(=O)[C@H](CCCCN)NC(=O)[C@H](CCCCN)NC(=O)[C@@H](NC(=O)[C@@H](NC(=O)[C@H](CC(=O)O)NC(=O)[C@H](Cc1ccccc1)NC(=O)[C@H](CC(C)C)NC(=O)CN)[C@@H](C)CC)[C@@H](C)CC)C(=O)N[C@@H](C)C(=O)N[C@@H](CCC(=O)O)C(=O)N[C@@H](CO)C(=O)N[C@@H](Cc1ccccc1)C(N)=O [aurein 1.2] (H-GLFDIIKKIAESF-NH2) | 0.1 |
| CC[C@H](C)[C@H](NC(=O)[C@H](CCCCN)NC(=O)[C@H](CCCCN)NC(=O)[C@H](C)NC(=O)[C@@H](NC(=O)[C@H](CC(=O)O)NC(=O)[C@H](Cc1ccccc1)NC(=O)[C@H](CC(C)C)NC(=O)CN)[C@@H](C)CC)C(=O)N[C@@H](C)C(=O)N[C@@H](CCC(=O)O)C(=O)N[C@@H](CO)C(=O)N[C@@H](Cc1ccccc1)C(N)=O [Peptide I6A] (H-GLFDIAKKIAESF-NH2) | 0.6 |
| CC[C@H](C)[C@H](NC(=O)[C@H](CCCCN)NC(=O)[C@H](C)NC(=O)[C@@H](NC(=O)[C@@H](NC(=O)[C@H](CC(=O)O)NC(=O)[C@H](Cc1ccccc1)NC(=O)[C@H](CC(C)C)NC(=O)CN)[C@@H](C)CC)[C@@H](C)CC)C(=O)N[C@@H](C)C(=O)N[C@@H](CCC(=O)O)C(=O)N[C@@H](CO)C(=O)N[C@@H](Cc1ccccc1)C(N)=O [Peptide K7A] (H-GLFDIIAKIAESF-NH2) | 0.1 |
| CC[C@H](C)[C@H](NC(=O)[C@H](CCCCN)NC(=O)[C@H](CCCCN)NC(=O)[C@@H](NC(=O)[C@@H](NC(=O)[C@H](CC(=O)O)NC(=O)[C@H](Cc1ccccc1)NC(=O)[C@H](CC(C)C)NC(=O)[C@H](C)N)[C@@H](C)CC)[C@@H](C)CC)C(=O)N[C@@H](C)C(=O)N[C@@H](CCC(=O)O)C(=O)N[C@@H](CO)C(=O)N[C@@H](Cc1ccccc1)C(N)=O [Peptide G1A] (H-ALFDIIKKIAESF-NH2) | 0.0 |
| CC[C@H](C)[C@H](NC(=O)[C@H](C)NC(=O)[C@H](Cc1ccccc1)NC(=O)[C@H](CC(C)C)NC(=O)CN)C(=O)N[C@H](C(=O)N[C@@H](CCCCN)C(=O)N[C@@H](CCCCN)C(=O)N[C@H](C(=O)N[C@@H](C)C(=O)N[C@@H](CCC(=O)O)C(=O)N[C@@H](CO)C(=O)N[C@@H](Cc1ccccc1)C(N)=O)[C@@H](C)CC)[C@@H](C)CC [Peptide D4A] (H-GLFAIIKKIAESF-NH2) | 0.3 |
